tested on: LOX IMVI melanoma; assay: NCI tumour cell line growth inhibition, 48 h
experimental endpoint: TGI

Which measured TGI value corresponds to `O=C1O/C(=C\c2ccc(O)c(Br)c2)C(c2ccc(O)cc2)=C1Cl` ?
> 100 µM

Now try CSc1nc(NC2OCC(OC(C)=O)C(OC(C)=O)C2OC(C)=O)c(N=CC=Nc2c(NC3OCC(OC(C)=O)C(OC(C)=O)C3OC(C)=O)nc(SC)n(C)c2=O)c(=O)n1C (stereo not drawn) .
> 100 µM

Now try `Cc1cc(C)c(C(=O)O)c(N)c1O` .
> 100 µM

Now try `Cc1cc(N(CCC#N)CCC#N)ccc1/C=C1/CN(N2C(=O)/C(=C/c3ccc(N(CCC#N)CCC#N)cc3C)N=C2c2ccccc2)C(c2ccccc2)=N1` .
> 100 µM

Now try `COc1ccc2[nH]c3c4c(c5cc(C(C)(C)C)ccc5c3c2c1)C(=O)N(c1ccccc1)C4=O` .
> 100 µM

Now try `CCCCCCCCCCCCCOC(=O)c1c(C)[nH]c(/C=C2\N=C(c3ccc[nH]3)C=C2OC)c1C` .
0.0223 µM

Now try `Cc1nc(NC(=S)NC(=O)c2ccc(Cl)c(Cl)c2)sc1C(=O)/C=C/c1ccccc1[N+](=O)[O-]` .
34.3 µM

Now try `CC(=O)OCc1nc(C#N)c(N)o1` .
> 100 µM

Now try `CCCCCCCCCOC(=S)NC` .
35.5 µM

Now try `CN(CCc1ccc(Br)cc1)CCN1CCCCC1` .
94.2 µM

Now try `O=C(NO)c1cccc(OCc2ccc(Br)cc2)c1` .
> 34.8 µM

====

system: MALME-3M melanoma; experiment: NCI tumour cell line growth inhibition, 48 h; in the data active means GI50 below about 0.43 µM; inactive means the rest
The reply should name one outcome from 1 for active, -1 for inactive

- molecule: "O=c1ncc(-c2ccc(C(F)(F)F)cc2)c(NC2CCCCCC2)[nH]1"
  test target: "MALME-3M melanoma"
  assigned label: -1

Dear colleague, could you share the recorded outcome for `COc1ccc(C(=S)c2cc(OC)c(OC)c(OC)c2)cc1OC(=O)CCl` when you have a moment?
-1

Now try `O=c1oc2ccc(Cl)cc2c(=O)n1-c1ccc(Cl)cc1F` .
1

Now try `COc1ccc(C(=O)/C=C/c2cc3ccccc3[nH]c2=O)cc1` .
-1

Now try `CS(=O)(=O)CCNCc1ccc(-c2ccc3ncnc(Nc4ccc(OCc5ccccc5)c(C(F)(F)F)c4)c3c2)o1` .
-1

Now try `COc1cc2c(c(OC)c1OC)-c1ccc(OC)c(=O)cc1[C@@H](NC(=O)CCl)CC2` .
-1

Now try `CC(=O)[O-].CC(=O)[O-].[Mn+2].c1ccc(/C(=N\Nc2ccccn2)c2ccccn2)cc1` .
1

Now try `O=C1c2ccccc2C(=O)N1/N=C\c1ccc(Br)cc1` .
-1

Now try `COc1cc2[nH]c(C(=O)c3cc(OC)c(OC)c(OC)c3)c(N)c2cc1C#CCO` .
1

====

test system: UO-31 renal; test: NCI tumour cell line growth inhibition, 48 h; in the data active means GI50 below about 0.43 µM; inactive means the rest
The reply should name one outcome from true (1) (active), false (0) (inactive)

- compound: "CCc1ccc(C2=C/C(=C/c3ccc(Cl)cc3)C(=O)N2CCc2ccc(S(N)(=O)=O)cc2)cc1"
  test target: "UO-31 renal"
  assigned label: "false (0)"
- compound: "NC1=NC(=O)N2CC12 (centres undefined)"
  test target: "UO-31 renal"
  assigned label: "false (0)"
- compound: "O=C1C=C(Nc2ccccc2)c2ncccc2C1=O"
  test target: "UO-31 renal"
  assigned label: "true (1)"

Read the next record carefully.
Dear colleague, could you share the recorded outcome for `O=C1C(=O)c2cc([N+](=O)[O-])ccc2-c2ccccc21` when you have a moment?
false (0)
